The reported numbers originate from PubChem BioAssay.

- System: XIP peptide (Xip251-270)
- procedure text: small-molecule binders of XIP peptide, primary screen, biochemical, small-molecule microarray, fluorescence 635/667 nm, 0.5 µg/mL protein (AID 1183)
- assay conditions: small-molecule microarray binding, fluorescence 635 nm; higher = more signal
Heads up, the class ranges for composite z-score are low interval: < 0.1; middle interval: ≥ 0.1 and < 0.7; high interval: ≥ 0.7

COC(=O)[C@@]1(Cc2ccc(OC)cc2)[C@H]2c3cc(C(=O)N4CCCC4)n(Cc4ccc(S(C)(=O)=O)cc4)c3C[C@H]2CN1C(=O)c1ccccc1 = middle interval

Ask: Which composite z-score band matches O=C1[C@@]23C=C(Br)[C@H](C[C@@H]2COC3)[C@@]12CO2 ?
Result: low interval

Ask: Just checking, what class would you give COC(=O)[C@@]1(Cc2ccc(F)cc2)[C@H]2c3cc(C(=O)N(C)C)n(Cc4c(CO)[nH]cc(C)c4=O)c3C[C@H]2CN1C(=O)c1ccccc1 here?
Result: low interval

Ask: Which composite z-score band matches CCN(CC)c1ccc(N2CC=CC34O[C@@H]5C=CCCOC(=O)C5[C@H]3C(=O)N(CCO)[C@@H]4C2=O)cc1 (stereo not given in full) ?
Result: low interval

Ask: Class for [N-]=[N+]=NCc1ccccc1[C@@H]1OC(c2ccc(OCCCO)cc2)=N[C@]1(Cc1ccccc1)C(=O)NCCN1CCOCC1 ?
Result: high interval

Ask: Could you tell me which band CC(C)CNC(=O)[C@@H]1c2ccccc2C(=O)N(C2CCCCC2)[C@H]1c1ccc(CO)cc1 belongs to?
Result: middle interval

Ask: Hi, small favor: classify CCOC(=O)C1=C[C@@H](c2ccccc2)N(S(=O)(=O)c2ccc(C)cc2)[C@H]1c1ccccc1 by its composite z-score when you get a moment.
Result: middle interval

---

- procedure text: P. aeruginosa biofilm formation inhibitors, primary screen, PAO1 strain, BacTiter-Glo luminescence, LB-PBS (AID 1144)
- assay conditions: 12 h, higher = more signal
Where z-score equals or exceeds 0.3, the correct label is TRUE; where it does not, the label is FALSE.

Please review the following examples before continuing.
CCCCNC(=O)c1ccc(C#C[Si](C(C)C)(C(C)C)C(C)C)c(OC(C)=O)c1 = FALSE
CN(C)C(=O)[C@@]1(Cc2ccccc2N=[N+]=[N-])N=C(c2ccc(OCCCO)cc2)O[C@H]1c1ccccc1 = FALSE
C=CCC(OC(C)=O)[C@@H]1[C@@H](N(Cc2cccc3ccccc23)C(=O)c2ccc(-c3ccccc3)cc2)c2cc(OCCCO)ccc2N1C(=O)c1ccc(-c2ccccc2)cc1 (stereo partly specified) = FALSE

Ask: I'd appreciate it if you could say whether CC(C)[C@H]1NC(=O)[C@@]23C(=O)N[C@@H](Cc4ccccc4)C2[C@H](C)[C@@]2(C)O[C@H]2C3/C=C/C/C=C\CNC(=O)[C@H](Cc2ccccc2)NC1=O (stereo partly specified) has z-score at least equal to 0.3.
Result: TRUE

Ask: Hi team, for Cc1ccc(S[C@]2(C(=O)NC(C)C)CC(=O)N(C(C)C)[C@@H]2c2ccc(CO)cc2I)cc1 , is the recorded z-score at or above 0.3?
Result: FALSE

Ask: Confirm if z-score reported for the molecule COCCCNC(=O)[C@@]1(c2ccc([N+](=O)[O-])cc2)CC(=O)N(C(C)C)[C@@H]1c1ccc(CO)cc1 is 0.3 or above.
Result: TRUE

Ask: Please indicate if the recorded z-score for CCCCCN1CC=CC23O[C@@H]4C=CCOC(=O)[C@@H]4[C@H]2C(=O)N(CCO)[C@@H]3C1=O (stereo partly specified) meets or exceeds 0.3.
Result: TRUE

Ask: Reported z-score at or above 0.3? COC(=O)[C@@]1(Cc2ccccc2)[C@H]2c3cc(C(=O)N(C)C)n(CCn4cc([N+](=O)[O-])nc4C)c3C[C@H]2CN1C(=O)c1ccccc1
Result: TRUE

Ask: Does the molecule CCCCC(=C=CC[C@H](O)c1ccc(OCCO)cc1)C[C@H](O)COCc1ccccc1 have recorded z-score that is 0.3 or more?
Result: TRUE

Ask: Quick check: does C=C(/C(=C/C[C@@H](OC(=O)c1ccncc1)c1cccc(OCCO)c1)c1cnc2ccccc2c1)C(C)C have z-score greater than or equal to 0.3?
Result: FALSE

Ask: Would you say CC(C)CCC[C@@H](C)[C@H]1CC[C@@]2(C)C3=C(CC[C@]12C)[C@@]1(C)CC[C@H](OC(=O)c2ccccc2)C(C)(C)C1CC3 (stereo partly specified) shows z-score at minimum 0.3?
Result: FALSE

Ask: Check this molecule for z-score at or above 0.3: COc1cc(CO)cc(I)c1O[C@H]1C=C(C(=O)NCCO)C[C@@H](NCC2CCCCC2)[C@@H]1O
Result: FALSE

Ask: Hi, just wondering whether CC1(C)C(=O)C(c2ccccc2)=C2CN3C(=O)N(CCc4ccccc4)C(=O)C3(Cc3ccc(F)cc3)C=C21 (stereo unspecified) shows z-score of 0.3 or higher.
Result: FALSE

Ask: Determine whether this molecule has z-score no lower than 0.3: C=C[C@@H](C)[C@@H](OC(=O)Nc1ccc(SC)cc1)c1ccc(OCCO)cc1
Result: FALSE

Ask: hey, is z-score for this one >= 0.3? COCCOC(=O)N1C(=O)[C@@]2(c3cc(C#CC4=CCCCC4)ccc31)[C@H](C(=O)N1CCCCCCC1)[C@H]1C(=O)O[C@H](c3ccccc3)[C@H](c3ccccc3)N1[C@@H]2c1ccc(OCCO)cc1
Result: FALSE

Ask: I'd appreciate it if you could say whether CC(=O)NCCCC[C@@H]1NC(=O)[C@@H]2C[C@H](C(=O)NCCCCCCN)[C@H](c3cccc(OCCO)c3)N2C1=O has z-score at least equal to 0.3.
Result: TRUE
